Data provenance: ChEMBL document CHEMBL5303304

Tested on: U2OS
Assay: Incucyte cell viability with U2OS; further: unitless GR value; below 1 slowed growth and below 0 cell loss
Format: toxicity, cell-based
Settings: human, 24 h, 10 µM, compound concentration 10 uM, replicate number 1
value type: Growth Rate

[[record]]
molecule = "CC(C)(C)c1cc(NC(=O)c2csc(Nc3ccccn3)n2)no1"
reported_value = 0.65

[[record]]
molecule = "Cc1ccc(C)c(OCCCC(C)(C)C(=O)O[C@@H]2O[C@H](C(=O)O)[C@@H](O)[C@H](O)[C@H]2O)c1"
reported_value = 0.9

[[record]]
molecule = "CCc1cc2c(cc1-c1cccc(S(=O)(=O)F)c1)C(C)(C)c1[nH]c3cc(C#N)ccc3c1C2=O"
reported_value = 0.66

[[record]]
molecule = "CN(C)C/C=C/C(=O)Nc1cccc(C(=O)Nc2ccc(Nc3nccc(-c4cccnc4)n3)cc2)c1"
reported_value = 0.27

[[record]]
molecule = "O=C(NCc1cccc(O)c1)Nc1nc(-c2ccncc2)cs1"
reported_value = 0.88

[[record]]
molecule = "Cc1cc2c(cc(C(=O)N[C@H](CO)c3ccc(S(=O)(=O)CC(=O)O)cc3)n2C)c(Cl)c1Cl"
reported_value = 0.95

[[record]]
molecule = "O=C(Cc1ccccc1)Nc1nnc(N2CC[C@@H]3[C@H]2CN3c2cccnn2)s1"
reported_value = 0.84

[[record]]
molecule = "C=C(F)C(=O)N1CCN(c2nc(OC[C@@H]3CCCN3C)nc3c2CCN(c2cccc4cccc(Cl)c24)C3)C[C@@H]1CC#N"
reported_value = -0.76

